Experiment: AUC (0 to infinity) in Sprague-Dawley rat at 1 mg/kg,iv administration measured upto 24 hrs by LC-MS/MS analysis
Format: ADME, organism-based
Conditions: in vivo
Attribute measured: AUC(0-inf) (ng·h/mL)
Answer in ng·h/mL, number only, no unit symbol.

- COc1ccc(-c2csc(NC(=O)CCN3CCN(Cc4cccc([N+](=O)[O-])c4)CC3)n2)cc1OC: 79.9

Shift focus to the following entry.
INPUT: In one line, give reported AUC(0-inf) of the entry O[C@H](COc1ccc(Br)cc1)CN1CCN(Cc2cc3ccccc3[nH]2)CC1 .
OUTPUT: 698

---

Each record here notes measured AUC(0-t) at 24 h.
Assay: AUC (0 to t) in Sprague-Dawley rat at 1 mg/kg,iv administration measured upto 24 hrs by LC-MS/MS analysis
Type: ADME, organism-based
Conditions: in vivo
Response body: numeric value in ng·h/mL, unit text excluded.

- COc1ccc(-c2csc(NC(=O)CCN3CCN(Cc4cccc([N+](=O)[O-])c4)CC3)n2)cc1OC: 79.1

INPUT: Quote AUC(0-t) at 24 h reported for O[C@H](COc1ccc(Br)cc1)CN1CCN(Cc2cc3ccccc3[nH]2)CC1 please.
OUTPUT: 691

---

Test: Drug concentration in Sprague-Dawley rat serum at 15 mg/kg,iv administration measured upto 24 hrs by LC-MS/MS analysis
Format: ADME, organism-based
Details: read-out: Ct
Attribute measured: concentration at 24 h (ng/mL)
State the answer as a number, implicitly in ng/mL.

INPUT: Give a short answer stating reported concentration at 24 h for O=C(CCN1CCN(Cc2ccccc2)CC1)Nc1nc(-c2ccccc2)cs1 .
OUTPUT: 1190

---

Test: Drug concentration in Sprague-Dawley rat serum at 1 mg/kg,iv administration measured upto 24 hrs by LC-MS/MS analysis
Type: ADME, organism-based
Conditions: read-out: Ct
Attribute measured: concentration at 24 h (ng/mL)
Just the number in ng/mL, nothing appended.

INPUT: Report concentration at 24 h, nothing else, for this compound: O[C@H](COc1ccc(Br)cc1)CN1CCN(Cc2cc3ccccc3[nH]2)CC1
OUTPUT: 1080

---

Target: Myeloid differentiation primary response protein MyD88 (Homo sapiens)
Sequence (Q99836 whole entry, the tested form may be a part): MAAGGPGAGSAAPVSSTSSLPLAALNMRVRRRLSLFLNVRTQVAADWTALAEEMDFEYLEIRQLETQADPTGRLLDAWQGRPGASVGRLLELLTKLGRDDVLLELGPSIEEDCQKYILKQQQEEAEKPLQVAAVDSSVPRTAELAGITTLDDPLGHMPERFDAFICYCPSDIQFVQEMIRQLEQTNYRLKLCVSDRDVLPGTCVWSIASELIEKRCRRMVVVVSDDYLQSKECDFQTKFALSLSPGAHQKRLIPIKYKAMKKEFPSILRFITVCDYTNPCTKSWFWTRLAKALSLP
Test: Binding affinity to CM5 sensor chip immobilized human MyD88 TIR domain assessed as dissociation constant by SPR analysis
Attribute measured: Kd (µM)
All answers are understood in µM, so give the number only.

INPUT: Return reported Kd. Input compound: O[C@H](COc1ccc(Br)cc1)CN1CCN(Cc2cc3ccccc3[nH]2)CC1
OUTPUT: 15

---

Assay: Cmax in Sprague-Dawley rat at 1 mg/kg,iv administration measured upto 24 hrs by LC-MS/MS analysis
Assay type: ADME, organism-based
Conditions: in vivo
Attribute measured: Cmax (ng/mL)
# value in ng/mL; strip the unit string

INPUT: Give reported Cmax value for O[C@H](COc1ccc(Br)cc1)CN1CCN(Cc2cc3ccccc3[nH]2)CC1
OUTPUT: 1080

INPUT: Given COc1ccc(-c2csc(NC(=O)CCN3CCN(Cc4cccc([N+](=O)[O-])c4)CC3)n2)cc1OC , respond with its Cmax.
OUTPUT: 297

---

System: J774.A1
Experiment: Anti-inflammatory activity in LPS-induced mouse J774.A1 cells assessed as inhibition of IL-6 production by ELISA
Assay type: functional, cell-based
Each entry below carries its recorded IC50.
Write the answer as a number in nM, unit excluded.

- O[C@H](COc1ccc(Br)cc1)CN1CCN(Cc2cc3ccccc3[nH]2)CC1: 240

INPUT: Quickly give me recorded IC50 for O[C@@H](COc1ccc(Br)cc1)CN1CCN(Cc2cc3ccccc3[nH]2)CC1
OUTPUT: 820

---

Assay: AUC (0 to infinity) in Sprague-Dawley rat at 20 mg/kg,po administration measured upto 24 hrs by LC-MS/MS analysis
Format: ADME, organism-based
Conditions: in vivo
Attribute measured: AUC(0-inf) (ng·h/mL)
Give your result in ng·h/mL as a bare value.

INPUT: Give AUC(0-inf) for O[C@H](COc1ccc(Br)cc1)CN1CCN(Cc2cc3ccccc3[nH]2)CC1
OUTPUT: 3200

---

Experiment: Tmax in Sprague-Dawley rat at 50 mg/kg,po administration measured upto 24 hrs by LC-MS/MS analysis
Format: ADME, organism-based
Conditions: in vivo
Attribute measured: Tmax (min)
Entry rule: numbers only, all in min.

INPUT: Please supply the value of reported Tmax for the item COc1ccc(-c2csc(NC(=O)CCN3CCN(Cc4cccc([N+](=O)[O-])c4)CC3)n2)cc1OC
OUTPUT: 15

---

Assay: AUC (0 to t) in Sprague-Dawley rat at 50 mg/kg,po administration measured upto 24 hrs by LC-MS/MS analysis
Assay type: ADME, organism-based
Conditions: in vivo
Attribute measured: AUC(0-t) at 24 h

INPUT: Give the reported AUC(0-t) at 24 h for this molecule. COc1ccc(-c2csc(NC(=O)CCN3CCN(Cc4cccc([N+](=O)[O-])c4)CC3)n2)cc1OC
OUTPUT: 4.38 ng·h/mL

---

Experiment: AUC (0 to t) in Sprague-Dawley rat at 20 mg/kg,po administration measured upto 24 hrs by LC-MS/MS analysis
Format: ADME, organism-based
Details: in vivo
Attribute measured: AUC(0-t) at 24 h (ng·h/mL)
Respond numerically; units are ng·h/mL and should not be typed.

INPUT: Fill in AUC(0-t) at 24 h for record O[C@H](COc1ccc(Br)cc1)CN1CCN(Cc2cc3ccccc3[nH]2)CC1
OUTPUT: 2860

---

Tested on: J774.A1
Test: Cytotoxicity against mouse J774.A1 cells at 10 uM by MTT assay
Format: toxicity, cell-based
Conditions: j774.a1, 10 µM
Attribute measured: Activity

Consider the reported Activity for these compounds:
• OC(COc1ccccc1)CN1CCN(Cc2cc3ccccc3[nH]2)CC1 (configuration not stated) = Non-toxic
• COc1ccc(OCC(O)CN2CCN(Cc3cc4ccccc4[nH]3)CC2)cc1 (configuration not stated) = Non-toxic
• OC(COCc1ccccc1)CN1CCN(Cc2cc3ccccc3[nH]2)CC1 (configuration not stated) = Non-toxic
• COc1ccccc1OCC(O)CN1CCN(Cc2cc3ccccc3[nH]2)CC1 (configuration not stated) = Non-toxic
• CC(c1ccccc1)C(O)CN1CCN(CC(O)COc2ccc(F)cc2)CC1 (configuration not stated) = Non-toxic
• CC(c1ccccc1)C(O)CN1CCN(CC(O)COCc2ccccc2)CC1 (configuration not stated) = Non-toxic
• CC(c1ccccc1)C(O)CN1CCN(CC(O)COc2ccc(Cl)cc2)CC1 (configuration not stated) = Non-toxic
• Cc1c(CN2CCN(C3CCNC3)CC2)[nH]c2ccc(F)cc12 (configuration not stated) = Non-toxic
• COc1ccc(OCC(O)CN2CCN(CC(O)C(C)c3ccccc3)CC2)cc1 (configuration not stated) = Non-toxic
• CC(c1cccc(F)c1)C(O)CN1CCN(CC(O)COc2ccc(F)cc2)CC1 (configuration not stated) = Non-toxic

INPUT: Answer with reported Activity of COc1ccccc1OCC(O)CN1CCN(CC(O)C(C)c2cccc(F)c2)CC1 (configuration not stated)
OUTPUT: Non-toxic

INPUT: Query Activity for CC(c1cccc(F)c1)C(O)CN1CCN(CC(O)COCc2ccccc2)CC1 (configuration not stated)
OUTPUT: Non-toxic

INPUT: Give the reported Activity for this compound. COc1ccc(OCC(O)CN2CCN(CC(O)C(C)c3cccc(F)c3)CC2)cc1 (configuration not stated)
OUTPUT: Non-toxic

INPUT: Look up and report measured Activity for this entry: OC(COc1ccc(Br)cc1)CN1CCN(Cc2cc3ccccc3[nH]2)CC1 (configuration not stated)
OUTPUT: Non-toxic

INPUT: Hello, please tell me recorded Activity for this one: CC(c1cccc(F)c1)C(O)CN1CCN(CC(O)COc2ccccc2)CC1 (configuration not stated)
OUTPUT: Non-toxic

INPUT: Fill in Activity for record CC(c1cccc(F)c1)C(O)CN1CCN(CC(O)COc2ccc(Br)cc2)CC1 (configuration not stated)
OUTPUT: Non-toxic

INPUT: Recall and state the measured Activity for COc1ccccc1OCC(O)CN1CCN(CC(O)C(C)c2ccccc2)CC1 (configuration not stated) .
OUTPUT: Non-toxic

INPUT: Fill in Activity for record Cc1ccccc1OCC(O)CN1CCN(CC(O)C(C)c2ccccc2)CC1 (configuration not stated)
OUTPUT: Non-toxic

---

Experiment: Cmax in Sprague-Dawley rat at 20 mg/kg,po administration measured upto 24 hrs by LC-MS/MS analysis
Format: ADME, organism-based
Settings: in vivo
Attribute measured: Cmax (ng/mL)
// note: answer is a bare numeric in ng/mL

INPUT: Please supply the value of reported Cmax for the item O[C@H](COc1ccc(Br)cc1)CN1CCN(Cc2cc3ccccc3[nH]2)CC1
OUTPUT: 320

---

System: J774.A1
Assay: Cytotoxicity against mouse J774.A1 cells at 10 uM by MTT assay
Format: toxicity, cell-based
Details: j774.a1, 10 µM
Attribute measured: Activity

In the examples that follow, each entry is paired with its recorded Activity.
• Cc1ccccc1OCC(O)CN1CCN(CC(O)C(C)c2cccc(F)c2)CC1 (stereo unspecified) = Non-toxic
• CC(c1ccccc1)C(O)CN1CCN(CC(O)COc2ccccc2)CC1 (stereo unspecified) = Non-toxic
• OC(COc1ccc(Cl)cc1)CN1CCN(Cc2cc3ccccc3[nH]2)CC1 (stereo unspecified) = Non-toxic
• CC(c1cccc(F)c1)C(O)CN1CCN(CC(O)COc2ccc(C(C)(C)C)cc2)CC1 (stereo unspecified) = Non-toxic
• Cc1ccccc1OCC(O)CN1CCN(Cc2cc3ccccc3[nH]2)CC1 (stereo unspecified) = Non-toxic

Turning to the following compound.
INPUT: Please report Activity with J774.A1 for item CC(c1ccccc1)C(O)CN1CCN(CC(O)COc2ccc(C(C)(C)C)cc2)CC1 (stereo unspecified) .
OUTPUT: Toxic
